Values were extracted from patent US10995091B2.

Study Target: Human CXCR4 transfected HEK293 cells (Homo sapiens)
Test Summary: CXCR4 functional calcium assay (calcium flux FLIPR, antagonism of SDF1 response)
Details: CXCR4 functional activity, antagonism of SDF1 (EC50 concentration), read-out: CXCR4 fKi
Method: The functional activity of test compounds was routinely tested by measuring the ability of compounds to antagonize CXCR4 activity in a dose dependent manner, using a calcium flux Fluorescent Imaging Plate Reader FLIPR assay. […] A combined agonist/antagonist protocol was used to measure changes in intracellular calcium concentration. Compound (antagonist) was added to the cell plate using a Fluorometric Imaging Plate Reader (FLIPR) (Molecular Devices, Sunnyvale, Calif., USA). […]
pKi: −log10 of the molar value.
What pKi was measured for each of the following?

Solved cases (5 shown):
structure_as_smiles=CC(C)CCNC(=O)c1cccc(N2CCCN(C3CCN(Cc4ccccc4Cl)CC3)CC2)n1 result="6.30 to 7.00"
structure_as_smiles=Cc1nc(-c2cccc(N3CCCN(C4CCN(C(C)C)CC4)CC3)n2)[nH]c1C result="7.00 to 7.70"
structure_as_smiles=CC(C)CNC(=O)c1cccc(N2CCCN(C3CCN(C(C)C)CC3)CC2)n1 result="6.30 to 7.00"
structure_as_smiles=CC(C)N1CCC(N2CCCN(c3cccc(-c4nc(-c5ccccc5)no4)n3)CC2)CC1 result="6.30 to 7.00"
structure_as_smiles=CC(C)N1CCC(N2CCCN(c3cccc(C(=O)Nc4ccncc4)n3)CC2)CC1 result="> 7.70"

Batch request: pKi per item, same order as input.
1. O=C(NCC1CC1)c1cccc(N2CCCN(CCCN3CCC(F)(F)C3)CC2)n1
2. CC(C)N1CCC(N2CCCN(c3cccc(C(=O)NCc4cnco4)n3)CC2)CC1
3. COc1ccc2cc(-c3cccc(N4CCCN(C5CCN(C(C)C)CC5)CC4)n3)[nH]c2c1

OUTPUT:
["6.00 to 6.30", "7.00 to 7.70", "6.00 to 6.30"]

---

Study Target: Human CXCR4 transfected HEK293 cells (Homo sapiens, UniProt P61073)
Sequence (P61073 whole entry): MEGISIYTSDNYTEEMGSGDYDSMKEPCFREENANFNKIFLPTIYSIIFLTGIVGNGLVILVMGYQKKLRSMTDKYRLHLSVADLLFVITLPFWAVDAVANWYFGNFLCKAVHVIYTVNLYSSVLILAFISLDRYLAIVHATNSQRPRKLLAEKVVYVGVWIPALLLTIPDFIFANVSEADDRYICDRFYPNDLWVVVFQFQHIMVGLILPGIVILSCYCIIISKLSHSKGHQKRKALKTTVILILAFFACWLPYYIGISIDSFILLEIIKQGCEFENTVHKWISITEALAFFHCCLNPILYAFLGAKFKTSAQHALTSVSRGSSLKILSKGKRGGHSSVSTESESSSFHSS
Test Summary: CXCR4 functional calcium assay (calcium flux FLIPR, antagonism of SDF1 response)
Details: CXCR4 functional activity, antagonism of SDF1 (EC50 concentration), read-out: CXCR4 fKi
Where a name gives a salt, the structure may show the parent alone.
Reported Endpoint: Ki

compound="CC(C)N1CC[C@@H](N2CCCN(c3cccc(C(=O)NCC4CC4)n3)CC2)[C@H](O)C1 [Example 216]" study_target="Human CXCR4 transfected HEK293 cells (Homo sapiens, UniProt P61073)" result="100 to 500 nM"

For every item below, please supply its Ki.
1. CC(C)N1CCC(N2CCCN(c3cccc(C(=O)NC[C@H]4CCCO4)n3)CC2)CC1 [Example 20]
2. CC(C)N1CCC(N2CCCN(c3cccc(C(=O)NCCC#N)n3)CC2)CC1 [Example 13]
3. Cc1cc(NC(=O)c2cccc(N3CCCN(C4CCN(Cc5ccccc5Cl)CC4)CC3)n2)ccn1 [Example 84]
4. CC(C)N1CCC(N2CCCN(c3cccc(-c4cc5ncccc5[nH]4)n3)CC2)CC1 [Example 96]
5. Cc1nc(-c2cccc(N3CCCN(C4CCN(C(C)C)CC4F)CC3)n2)[nH]c1C1CC1 (stereo not drawn) [Example 213]
6. CCCCNC(=O)c1cccc(N2CCCN(C3CCN(Cc4ccccc4Cl)CC3)CC2)n1 [Example 138]
7. CC(C)N1CCC(N2CCCN(c3cccc(-c4nc5cccc(F)c5[nH]4)n3)CC2)CC1 [Example 142]

OUTPUT:
100 to 500 nM
100 to 500 nM
< 20 nM
20 to 100 nM
20 to 100 nM
500 to 1000 nM
20 to 100 nM

Value sought for every listed compound: Ki.
1. CC(C)N1CCC(N2CCCN(c3cccc(-c4nc5ccccc5n4C)n3)CC2)CC1 [Example 140]
2. CC(C)N1CCCC(N2CCN(c3cccc(C(=O)Nc4ccncc4)n3)CC2)CC1 (stereo not drawn) [Example 242]
3. Cc1cn[nH]c1-c1cccc(N2CCCN(C3CCN(C(C)C)CC3)CC2)n1 [Example 173, Trihydrochloride]
4. CCc1cnc(-c2cccc(N3CCCN(C4CCN([C@@H](C)C(F)(F)F)CC4)CC3)n2)[nH]1 [Example 115]
5. [2H]C1([2H])CCN(C2CCN(C(C)C)CC2F)CCN1c1cccc(C(=O)Nc2ccncc2)n1 (stereo not drawn) [Example 211]

OUTPUT:
["500 to 1000 nM", "100 to 500 nM", "500 to 1000 nM", "100 to 500 nM", "20 to 100 nM"]

Please give Ki for each item listed below.
1. CC(C)(C)N1CCC(N2CCCN(c3cccc(C(=O)NCC4CC4)n3)CC2)CC1 [Example 64]
2. CC(C)N1CCC(NC2CCN(c3cccc(C(=O)Nc4ccncc4)n3)CC2)CC1 [Example 249]

OUTPUT:
1: 20 to 100 nM; 2: 100 to 500 nM

Need Ki for each of these compounds.
1. O=C(NCC1CC1)c1csc(N2CCCN(C3CCN(Cc4ccccc4Cl)CC3)CC2)n1 [Example 265]
2. CC1CN(c2cccc(C(=O)Nc3ccncc3)n2)CCN(C2CCN(C(C)C)CC2)C1 (stereo not drawn) [Example 182]
3. CCc1cnc(-c2cccc(N3CCCN(C4CCN(C(C)C)CC4)CC3)n2)[nH]1 [Example 108]
4. O=C(NCC1CC1)c1cccc(N2CCCN(CCCNCc3ccccc3Cl)CC2)n1 [Example 258]
5. COCCN1CCC(N2CCCN(c3cccc(C(=O)NCC4CC4)n3)CC2)CC1 [Example 71]
6. CC(C)N1CCC(N2CCCN(c3cccc(C(=O)Nc4ccc(Cl)cc4)n3)CC2)CC1 [Example 25]
7. O=C(NC1CCOCC1)c1cccc(N2CCCN(C3CCN(Cc4ccccc4Cl)CC3)CC2)n1 [Example 52]
8. Cc1ccccc1CN1CCC(N2CCCN(c3cccc(C(=O)NCC4CC4)n3)CC2)CC1 [Example 131]

OUTPUT:
1: 500 to 1000 nM; 2: 20 to 100 nM; 3: < 20 nM; 4: 100 to 500 nM; 5: 500 to 1000 nM; 6: 100 to 500 nM; 7: 20 to 100 nM; 8: 100 to 500 nM

Please state, for each entry, its recorded Ki.
1. CC(C)N1CCCC(N(C)CCN(C)c2cccc(C(=O)Nc3ccncc3)n2)CC1 (stereo not drawn) [Example 238]
2. CCc1cnc(-c2cccc(NCCNC3CCN([C@H](C)CC)CC3)n2)[nH]1 [Example 235]
3. [2H]C1([2H])CCN(C2CCN([C@@H](C)C(F)(F)F)CC2)CCN1c1cccc(C(=O)Nc2ccncc2)n1 [Example 178]
4. CC(C)N1CCC(N2CCCN(c3cccc(-c4noc(-c5ccccc5)n4)n3)CC2)CC1 [Example 164]
5. [2H]C1([2H])CCN(c2cccc(C(=O)Nc3ccncc3)n2)CC(C)N1C1CCN(C(C)C)CC1 (stereo not drawn) [Example 195]
6. CCC(CC)N1CCC(N2CCCN(c3cccc(C(=O)NCC4CC4)n3)CC2)CC1 [Example 66]

OUTPUT:
1. 100 to 500 nM
2. 100 to 500 nM
3. 20 to 100 nM
4. 20 to 100 nM
5. < 20 nM
6. 20 to 100 nM

For every item below, please supply its Ki.
1. Cc1nc(-c2cccc(NCCNC3CCCN(C4CCCC4)C3)n2)[nH]c1C1CC1 (stereo not drawn) [Example 231]
2. Cc1ccc(NC(=O)c2cccc(N3CCCN(C4CCN(C(C)C)CC4)CC3)n2)cc1 [Example 27]
3. COCCNC(=O)c1cccc(N2CCCN(C3CCN(C(C)C)CC3)CC2)n1 [Example 14]
4. CC(C)N1CCC(N2CCCN(c3cccc(C(=O)Nc4ccncc4)n3)CC2C)CC1 (stereo not drawn) [Example 193]

OUTPUT:
["100 to 500 nM", "20 to 100 nM", "20 to 100 nM", "< 20 nM"]
